Collected pIC50 values appear next to each entry.
# assayed target: HCV NS3 protease (UniProt P26663)
# Sequence (P26663 1027-1206, other chains not shown): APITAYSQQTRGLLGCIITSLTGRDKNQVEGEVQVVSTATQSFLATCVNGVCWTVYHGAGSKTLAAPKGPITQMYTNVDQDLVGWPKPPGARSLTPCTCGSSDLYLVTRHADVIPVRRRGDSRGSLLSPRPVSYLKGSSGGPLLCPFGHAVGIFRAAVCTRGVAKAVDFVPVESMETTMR
# Type: biochemical, HCV genotype 1b
# Parameters: rows headed: IC50 (μM); IC50 (μM)
# run parameters: Table 6
pIC50: −log10 of the molar value.

compound	assayed target	pIC50
C=CC1CC1(NC(=O)C1CC(Oc2cc(N3CCOCC3)nc3ccccc23)CN1C(=O)C(NC(=O)OC(C)(C)C)C(C)(C)C)C(=O)O (stereo not drawn)	HCV NS3 protease (UniProt P26663)	6.56
C=CC1CC1(NC(=O)C1CC(Oc2ccnc3cc(Cl)ccc23)CN1C(=O)C(CC(C)C)NC(=O)OC(C)(C)C)C(=O)O (stereo not drawn)	HCV NS3 protease (UniProt P26663)	5.84
C=CC1CC1(NC(=O)C1CC(Oc2ccnc3cc(Cl)ccc23)CN1C(=O)C(NC(=O)OC(C)(C)C)C(C)C)C(=O)O (stereo not drawn)	HCV NS3 protease (UniProt P26663)	6.35
C=CC1CC1(NC(=O)C1CC(Oc2cc(-c3ccccc3)nc3c(OC)c(OC)ccc23)CN1C(=O)C(NC(=O)OC(C)(C)C)C(C)(C)C)C(=O)O (stereo not drawn)	HCV NS3 protease (UniProt P26663)	7.39
C=CC1CC1(NC(=O)C1CC(Oc2cc(-c3ccccc3)nc3cc(OC(C)C)ccc23)CN1C(=O)C(NC(=O)OC(C)(C)C)C(C)(C)C)C(=O)O (stereo not drawn)	HCV NS3 protease (UniProt P26663)	6.71
C=CC1CC1(NC(=O)C1CC(Oc2cc(-c3ccccc3)nc3cc(SC)ccc23)CN1C(=O)C(NC(=O)OC(C)(C)C)C(C)(C)C)C(=O)O (stereo not drawn)	HCV NS3 protease (UniProt P26663)	6.80
C=CC1CC1(NC(=O)C1CC(Oc2ccnc3cc(OC)ccc23)CN1C(=O)C(NC(=O)OC(C)(C)C)C(C)(C)C)C(=O)O (stereo not drawn)	HCV NS3 protease (UniProt P26663)	7.14
C=CC1CC1(NC(=O)C1CC(Oc2cc(CN(C)C)nc3ccccc23)CN1C(=O)C(NC(=O)OC(C)(C)C)C(C)(C)C)C(=O)O (stereo not drawn)	HCV NS3 protease (UniProt P26663)	5.64
C=CC1CC1(NC(=O)C1CC(Oc2cc(Cl)nc3ccccc23)CN1C(=O)C(NC(=O)OC(C)(C)C)C(C)(C)C)C(=O)O (stereo not drawn)	HCV NS3 protease (UniProt P26663)	6.60
C=CC1CC1(NC(=O)C1CC(Oc2cc(-c3ccccc3)nc3cc(N(C)C)ccc23)CN1C(=O)C(NC(=O)OC(C)(C)C)C(C)(C)C)C(=O)O (stereo not drawn)	HCV NS3 protease (UniProt P26663)	7.46
C=CC1CC1(NC(=O)C1CC(Oc2cc(-c3csc(NC(C)=O)n3)nc3cc(N(CC)CC)ccc23)CN1C(=O)C(NC(=O)OC(C)(C)C)C(C)(C)C)C(=O)O (stereo not drawn)	HCV NS3 protease (UniProt P26663)	7.37
C=CC1CC1(NC(=O)C1CC(Oc2cc(-c3csc(C)n3)nc3ccccc23)CN1C(=O)C(NC(=O)OC(C)(C)C)C(C)(C)C)C(=O)O (stereo not drawn)	HCV NS3 protease (UniProt P26663)	7.24

----------
# assayed target: HCV NS3 protease (UniProt P26663)
# Type: biochemical, HCV genotype 1b
# Set-up: rows headed: IC50 (μM); IC50 (μM)
# run parameters: Table 7
pIC50: −log10 of the molar value.
Collected pIC50 values appear next to each entry.

compound	pIC50
C=CC1CC1(NC(=O)C1CC(Oc2cc(-c3cnccn3)nc3cc(OC)ccc23)CN1C(=O)C(NC(=O)OC(C)(C)C)C(C)(C)C)C(=O)O (centres unmarked) [compound 729]	6.70
C=CC1CC1(NC(=O)C1CC(Oc2cc(SCC)nc3cc(OC)ccc23)CN1C(=O)C(NC(=O)OC(C)(C)C)C(C)(C)C)C(=O)O (centres unmarked) [compound 734]	7.36
C=CC1CC1(NC(=O)C1CC(Oc2cc(-c3csc(CC)n3)nc3cc(OC)ccc23)CN1C(=O)C(NC(=O)OC(C)(C)C)C(C)(C)C)C(=O)O (centres unmarked) [compound 714]	7.92
C=CC1CC1(NC(=O)C1CC(Oc2cc(OC(C)C)nc3cc(OC)ccc23)CN1C(=O)C(NC(=O)OC(C)(C)C)C(C)(C)C)C(=O)O (centres unmarked) [compound 730]	7.38
C=CC1C[C@]1(NC(=O)[C@@H]1C[C@@H](Oc2cc(C(C)(C)C)nc3cc(OC)ccc23)CN1C(=O)[C@@H](NC(=O)OC(C)(C)C)C(C)(C)C)C(=O)O (some centres unmarked) [compound 736]	6.60
C=CC1CC1(NC(=O)C1CC(Oc2cc(-c3csc(NC(C)C)n3)nc3cc(OC)ccc23)CN1C(=O)C(NC(=O)OC(C)(C)C)C(C)(C)C)C(=O)O (centres unmarked) [compound 723]	7.33
C=CC1CC1(NC(=O)C1CC(Oc2cc(-c3csc(CS(C)(=O)=O)n3)nc3cc(OC)ccc23)CN1C(=O)C(NC(=O)OC(C)(C)C)C(C)(C)C)C(=O)O (centres unmarked) [compound 728]	7.66
C=CC1CC1(NC(=O)C1CC(Oc2cc(-c3csc(NCC)n3)nc3cc(OC)ccc23)CN1C(=O)C(NC(=O)OC(C)(C)C)C(C)(C)C)C(=O)O (centres unmarked) [compound 722]	7.32
C=CC1CC1(NC(=O)C1CC(Oc2cc(-c3csc(NC(C)(C)C)n3)nc3cc(OC)ccc23)CN1C(=O)C(NC(=O)OC(C)(C)C)C(C)(C)C)C(=O)O (centres unmarked) [compound 733]	7.55
C=CC1CC1(NC(=O)C1CC(Oc2cc(-c3cnn(C(C)(C)C)c3)nc3cc(OC)ccc23)CN1C(=O)C(NC(=O)OC(C)(C)C)C(C)(C)C)C(=O)O (centres unmarked) [compound 720]	7.52
C=CC1C[C@]1(NC(=O)[C@@H]1C[C@@H](Oc2cc(N)nc3cc(OC)ccc23)CN1C(=O)[C@@H](NC(=O)OC(C)(C)C)C(C)(C)C)C(=O)O (some centres unmarked) [compound 718]	6.80
C=CC1CC1(NC(=O)C1CC(Oc2cc(-c3cscn3)nc3cc(OC)ccc23)CN1C(=O)C(NC(=O)OC(C)(C)C)C(C)(C)C)C(=O)O (centres unmarked) [compound 713]	7.59
C=CC1CC1(NC(=O)C1CC(Oc2cc(N3CCc4ccccc43)nc3cc(OC)ccc23)CN1C(=O)C(NC(=O)OC(C)(C)C)C(C)(C)C)C(=O)O (centres unmarked) [compound 704]	6.62
C=CC1C[C@]1(NC(=O)[C@@H]1C[C@@H](Oc2cc(C(=O)O)nc3cc(OC)ccc23)CN1C(=O)[C@@H](NC(=O)OC(C)(C)C)C(C)(C)C)C(=O)O (some centres unmarked) [compound 710]	6.16

----------
# assayed target: HCV NS3 protease (UniProt P26663)
# Format: biochemical, HCV genotype 1b
# Set-up: rows headed: IC50 (μM); IC50 (μM)
# run parameters: Table 9
measure name: IC50 (nM)

> print(dat)
                                   molecule  measure.name  reported.value
1  C=CC1CC1(NC(=O)C1CC(Oc2cc(-c3ccccc3)nc3cc(OC)ccc23)CN1C(=O)C(NC(=O)OC1CCC1)C(C)(C)C)C(=O)O (stereo not drawn)          IC50              29
2  C=CC1CC1(NC(=O)C1CC(Oc2cc(-c3ccccc3)nc3cc(OC)ccc23)CN1C(=O)C(NS(=O)(=O)c1cccs1)C(C)(C)C)C(=O)O (stereo not drawn)          IC50              34
3  C=CC1CC1(NC(=O)C1CC(Oc2cc(-c3ccccc3)nc3cc(OC)ccc23)CN1C(=O)C(NC(=O)NC(CC)C(C)(C)C)C(C)(C)C)C(=O)O (stereo not drawn)          IC50              14

----------
# assayed target: HCV NS3 protease (UniProt P26663)
# Type: biochemical, HCV genotype 1b
# Design: rows headed: IC50 (μM); IC50 (μM)
# run parameters: Table 9
pIC50: −log10 of the molar value.
measure name: pIC50

molecule	assayed target	reported value
C=CC1CC1(NC(=O)C1CC(Oc2cc(-c3ccccc3)nc3cc(OC)ccc23)CN1C(=O)C(NS(=O)(=O)c1sc(NC(C)=O)nc1C)C(C)(C)C)C(=O)O (stereo not drawn)	HCV NS3 protease (UniProt P26663)	7.51
C=CC1CC1(NC(=O)C1CC(Oc2cc(-c3ccccc3)nc3cc(OC)ccc23)CN1C(=O)C(NC(=O)c1cccc(O)c1C)C(C)(C)C)C(=O)O (stereo not drawn)	HCV NS3 protease (UniProt P26663)	7.41
C=CC1CC1(NC(=O)C1CC(Oc2cc(-c3ccccc3)nc3cc(OC)ccc23)CN1C(=O)C(NC(=O)OC1CCSC1)C(C)(C)C)C(=O)O (stereo not drawn)	HCV NS3 protease (UniProt P26663)	7.60
